Test system: 422866-222-R5-J1-PDC spheroid viability
Experiment: Anticancer human tumor 422866-222-R5-J1-PDC patient-derived pancreatic adenocarcinoma cell line growth inhibition [CLK]
Settings: curve of first compound; second compound 3.16 µM; spheroids with HUVEC and MSC
From the text: A high-throughput screen of multi-cell type tumor spheroids was designed to identify active combinations of […] and targeted small molecules. Complex spheroids include a stromal component modeled by human endothelial cells (HUVEC) and fibroblasts modeled by human mesenchymal stem cells (MSCs). […] Compounds. […] If the clinical Cmax for an agent had not been determined, the highest concentration tested was 10 microM. […]
pIC50: −log10 of the molar value.
reported endpoint: pIC50

[in] I'd like to know its pIC50. The compound in question is CCc1c2c(nc3ccc(O)cc13)-c1cc3c(c(=O)n1C2)COC(=O)[C@]3(O)CC + CN1CCN(c2cc(C(=O)Nc3cc4cc(-c5cnn(C)c5)ccc4cn3)ccn2)CC1
[out] > 8.50

[in] Endpoint output: pIC50 of COc1cccc2c1C(=O)c1c(O)c3c(c(O)c1C2=O)CC(O)(C(=O)CO)CC3OC1CC(N)C(O)C(C)O1 (stereo not drawn) + CNC(=O)c1ccc(Nc2nc(OC3CCCC3)c3c(-c4ccc5nc(C)oc5c4)c[nH]c3n2)c(OC)c1 . Value?
[out] 6.96

[in] Look up pIC50 for this compound: NC(=O)C(=Cn1cnc(-c2cc(C(F)(F)F)cc(C(F)(F)F)c2)n1)c1cncnc1 + CN1CCN(c2cc(C(=O)Nc3cc4cc(-c5cnn(C)c5)ccc4cn3)ccn2)CC1
[out] > 8.02

* * *

system: 422866-222-R5-J1-PDC spheroid viability; assay: Anticancer human tumor 422866-222-R5-J1-PDC cell line growth inhibition [CLK]; settings: curve of first compound; second compound 10 µM; spheroids with HUVEC and MSC;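 further: spheroids exposed to agents for seven days before readout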
reported endpoint: IC50

[in] Recall the recorded IC50 for COc1ccc([C@@H](O)c2cc(-c3ncnc4cc(N5CCOCC5)ccc34)c(F)cc2Cl)nn1 + CNC(=O)c1ccc(Nc2nc(OC3CCCC3)c3c(-c4ccc5nc(C)oc5c4)c[nH]c3n2)c(OC)c1 with 422866-222-R5-J1-PDC spheroid viability and state it.
[out] 1.3 µM

[in] Provide the documented IC50 with 422866-222-R5-J1-PDC spheroid viability as the system for CC1COCCN1c1cc(C2(S(C)(=N)=O)CC2)nc(-c2ccnc3[nH]ccc23)n1 (stereo not given) + CNC(=O)c1ccc(Nc2nc(OC3CCCC3)c3c(-c4ccc5nc(C)oc5c4)c[nH]c3n2)c(OC)c1
[out] 0.63 µM

[in] I'm curious: which IC50 was measured for CC(=O)O[C@H]1C(=O)[C@@]2(C)[C@H]([C@H](OC(=O)c3ccccc3)[C@]3(O)C[C@H](OC(=O)[C@H](O)[C@@H](NC(=O)c4ccccc4)c4ccccc4)C(C)=C1C3(C)C)[C@]1(OC(C)=O)CO[C@@H]1C[C@@H]2O + CNC(=O)c1ccc(Nc2nc(OC3CCCC3)c3c(-c4ccc5nc(C)oc5c4)c[nH]c3n2)c(OC)c1 tested on 422866-222-R5-J1-PDC spheroid viability?
[out] > 10 µM

[in] Form entry - test system: 422866-222-R5-J1-PDC spheroid viability; read-out: IC50; molecule: COc1ccc([C@@H](O)c2cc(-c3ncnc4cc(N5CCOCC5)ccc34)c(F)cc2Cl)nn1 + CN1CCN(c2cc(C(=O)Nc3cc4cc(-c5cnn(C)c5)ccc4cn3)ccn2)CC1
[out] < 0.0316 µM

[in] Please tell me: IC50 of Nc1ccn(C2OC(CO)C(O)C2(F)F)c(=O)n1 (stereo not given) + CN1CCN(c2cc(C(=O)Nc3cc4cc(-c5cnn(C)c5)ccc4cn3)ccn2)CC1 , system 422866-222-R5-J1-PDC spheroid viability?
[out] < 0.0316 µM

[in] What IC50 appears in the records for this molecule with 422866-222-R5-J1-PDC spheroid viability? C=CC(=O)N1CCN(c2nc(=O)n(-c3c(C)ccnc3C(C)C)c3nc(-c4c(O)cccc4F)c(F)cc23)C(C)C1 (stereo not given) + CNC(=O)c1ccc(Nc2nc(OC3CCCC3)c3c(-c4ccc5nc(C)oc5c4)c[nH]c3n2)c(OC)c1
[out] < 0.0316 µM

[in] Observed IC50 on 422866-222-R5-J1-PDC spheroid viability for O=C(c1cc(Cc2n[nH]c(=O)c3ccccc23)ccc1F)N1CCN(C(=O)C2CC2)CC1 + CNC(=O)c1ccc(Nc2nc(OC3CCCC3)c3c(-c4ccc5nc(C)oc5c4)c[nH]c3n2)c(OC)c1 , please.
[out] > 10 µM

[in] Find IC50 (422866-222-R5-J1-PDC spheroid viability) for the entry CC(C)CC(NC(=O)C(Cc1ccccc1)NC(=O)c1cnccn1)B(O)O (stereo not given) + CN1CCN(c2cc(C(=O)Nc3cc4cc(-c5cnn(C)c5)ccc4cn3)ccn2)CC1
[out] < 0.000949 µM

[in] Item: O=C(c1cc(Cc2n[nH]c(=O)c3ccccc23)ccc1F)N1CCN(C(=O)C2CC2)CC1 + CN1CCN(c2cc(C(=O)Nc3cc4cc(-c5cnn(C)c5)ccc4cn3)ccn2)CC1 Test system: 422866-222-R5-J1-PDC spheroid viability Read-out: IC50 Value: ?
[out] < 0.0316 µM

[in] Form field - read-out: IC50; system: 422866-222-R5-J1-PDC spheroid viability; submitted item: O=c1[nH]cc(F)c(=O)[nH]1 + CN1CCN(c2cc(C(=O)Nc3cc4cc(-c5cnn(C)c5)ccc4cn3)ccn2)CC1
[out] < 0.0316 µM

* * *

System: 422866-222-R5-J1-PDC spheroid viability
Experiment: Anticancer human tumor 422866-222-R5-J1-PDC cell line growth inhibition [CLK];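 further: spheroids exposed to agents for seven days before readout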
Conditions: second compound 0.0316 µM; first compound 0.316 µM; stronger effect = lower value; spheroids with HUVEC and MSC
Text: A high-throughput screen of multi-cell type tumor spheroids was designed to identify active combinations of […] and targeted small molecules. Complex spheroids include a stromal component modeled by human endothelial cells (HUVEC) and fibroblasts modeled by human mesenchymal stem cells (MSCs). […] Compounds. […] If the clinical Cmax for an agent had not been determined, the highest concentration tested was 10 microM. […]
So basically, if viability, T/C comes in under 40% it's condition met, and if it's 40% or more it's condition not met.

[in] API: query returns whether the compound falls strictly under 40% in viability, T/C. Query: CC(CO)NC(=O)c1cc(-c2ccc(Cl)cc2)nn(-c2cnn(C)c2)c1=O (stereo not given) + CN1CCN(c2cc(C(=O)Nc3cc4cc(-c5cnn(C)c5)ccc4cn3)ccn2)CC1
[out] condition not met

[in] Confirm or reject: viability, T/C of COc1cccc2c1C(=O)c1c(O)c3c(c(O)c1C2=O)CC(O)(C(=O)CO)CC3OC1CC(N)C(O)C(C)O1 (stereo not given) + CNC(=O)c1ccc(Nc2nc(OC3CCCC3)c3c(-c4ccc5nc(C)oc5c4)c[nH]c3n2)c(OC)c1 lies strictly below 40%
[out] condition met

[in] Would you kindly verify if viability, T/C of CCCS(=O)(=O)Nc1ccc(F)c(C(=O)c2c[nH]c3ncc(-c4ccc(Cl)cc4)cc23)c1F + CN1CCN(c2cc(C(=O)Nc3cc4cc(-c5cnn(C)c5)ccc4cn3)ccn2)CC1 is strictly less than 40%?
[out] condition not met

[in] Would you kindly verify if viability, T/C of CC(Nc1ccc2c(c1)OCCn1cc(N3C(=O)OCC3C(F)F)nc1-2)C(N)=O (stereo not given) + CNC(=O)c1ccc(Nc2nc(OC3CCCC3)c3c(-c4ccc5nc(C)oc5c4)c[nH]c3n2)c(OC)c1 is strictly less than 40%?
[out] condition not met

* * *

For each of the compounds below, state its viability, T/C.
test system: 422866-222-R5-J1-PDC spheroid viability; test: Anticancer human tumor 422866-222-R5-J1-PDC cell line growth inhibition [CLK]; details: second compound 0.0316 µM; first compound 3.16 µM; stronger effect = lower value; spheroids with HUVEC and MSC;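 further: spheroids exposed to agents for seven days before readout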
Supply the numeric figure in %, leaving out any unit text.

[in] Name the recorded viability, T/C for Nc1ccn(C2OC(CO)C(O)C2(F)F)c(=O)n1 (stereo not drawn) + CNC(=O)c1ccc(Nc2nc(OC3CCCC3)c3c(-c4ccc5nc(C)oc5c4)c[nH]c3n2)c(OC)c1 .
[out] 45.3

[in] Record request: viability, T/C value, item CC(CO)NC(=O)c1cc(-c2ccc(Cl)cc2)nn(-c2cnn(C)c2)c1=O (stereo not drawn) + CNC(=O)c1ccc(Nc2nc(OC3CCCC3)c3c(-c4ccc5nc(C)oc5c4)c[nH]c3n2)c(OC)c1
[out] 77.2

[in] Given CC1COCCN1c1cc(C2(S(C)(=N)=O)CC2)nc(-c2ccnc3[nH]ccc23)n1 (stereo not drawn) + CN1CCN(c2cc(C(=O)Nc3cc4cc(-c5cnn(C)c5)ccc4cn3)ccn2)CC1 , state its recorded viability, T/C.
[out] 56
